Numbers sourced from paper PMC12754617.

Test system: Detroit 562
Experimental protocol: MTT viability assay
Assay type: cell-based, human
Run parameters: Detroit 562, 48 h, read-out: IC50 48h
Assign pIC50 to each entry below.
Answers are plain numbers, as −log10 of the molar value.

{"Structure smiles": "Cc1ccc(C(C)C)cc1.Cc1ccc(C(C)C)cc1.O=C1C(=Cc2cccnc2)CCC1=Cc1cccnc1.[Cl][Ru][Cl].[Cl][Ru][Cl]", "pIC50": 4.37}

INPUT: Find the recorded pIC50 belonging to `Cc1ccc(C(C)C)cc1.Cc1ccc(C(C)C)cc1.O=C1C(=Cc2ccnc3ccccc23)COCC1=Cc1ccnc2ccccc12.[Cl][Ru][Cl].[Cl][Ru][Cl]` and report it.
OUTPUT: 5.41
